meta.source: the supplement of paper PMC11061612

Test system: HCC1419 (Breast Carcinoma)
assay.notes: combination Emax (second highest fraction inhibited in the dose matrix, 72 h); higher = more inhibition; extreme values may be limits of the assay
Entries and their combination Emax
# answer = number (no unit)

molecule	combination Emax
Cc1c2c(nn1C)CSCc1cc(n(C)n1)CSc1cc(c3ccccc3c1)OCCCc1c(C(=O)O)n(C)c3c-2c(Cl)ccc13 [AZD5991] + CCN(CCO)CCCOc1ccc2c(Nc3cc(CC(=O)Nc4cccc(F)c4)[nH]n3)ncnc2c1 [AZD2811] (first compound max 1 µM, 7x7, partner max 1 µM)	0.308
COc1nnc2ccc(N3CCC(c4ccc(OCCN5CCN(C)C(=O)[C@H]5C)cc4)CC3)nn12 [AZD5153] + CCN(CCO)CCCOc1ccc2c(Nc3cc(CC(=O)Nc4cccc(F)c4)[nH]n3)ncnc2c1 [AZD2811] (first compound max 1 µM, 7x7, partner max 1 µM)	0.355
Cn1cnc2c(F)c(Nc3ccc(Br)cc3Cl)c(C(=O)NOCCO)cc21 [Selumetinib] + CC(C)n1c(=O)n(C)c2cnc3cc(F)c(-c4ccc(OCCCN5CCCCC5)nc4)cc3c21 [AZD1390] (first compound max 10 µM, 7x7, partner max 0.3 µM)	0.152
COc1cccc(OCCCN)c1-c1cc(Nc2cnc(C#N)cn2)n[nH]1 [Prexasertib] + C[C@@H]1COCCN1C2=NC(=NC(=C2)C3(CC3)[S@](=N)(=O)C)C4=C5C=CNC5=NC=C4 [AZD6738] (first compound max 1 µM, 7x7, partner max 10 µM)	0.449
CN(CCO)CC[C@H](CSc1ccccc1)Nc1ccc(S(=O)(=O)NC(=O)c2ccc(N3CCC([C@@H](O)c4ccccc4-c4ccc(Cl)cc4)CC3)cc2)cc1S(=O)(=O)C(F)(F)F [AZD4320] + C[C@@H]1COCCN1C2=NC(=NC(=C2)C3(CC3)[S@](=N)(=O)C)C4=C5C=CNC5=NC=C4 [AZD6738] (first compound max 1 µM, 7x7, partner max 10 µM)	0.367

The molecule CCN(CCO)CCCOc1ccc2c(Nc3cc(CC(=O)Nc4cccc(F)c4)[nH]n3)ncnc2c1 [AZD2811] + O=C(c1cc(Cc2n[nH]c(=O)c3ccccc23)ccc1F)N1CCN(C(=O)C2CC2)CC1 [Olaparib] (first compound max 1 µM, 7x7, partner max 10 µM) showed combination Emax equal to 0.115

For CN(C)CCCOc1ccc(-c2ccc3ncc4c(c3c2)n(C2CCOCC2)c(=O)n4C)cn1 [AZD0156] + C[C@@H]1COCCN1C2=NC(=NC(=C2)C3(CC3)[S@](=N)(=O)C)C4=C5C=CNC5=NC=C4 [AZD6738] (first compound max 1 µM, 7x7, partner max 10 µM) the molecule record lists combination Emax as 0.159
